- Assayed System: T1, ΔhASIC1a-nanodiscs (Homo sapiens, UniProt P78348)
- T1 construct: A truncated ASIC1a (amino acids 13-464; ΔhASIC1a) was overexpressed and purified; made in house; host or cells: HEK293F (BacMam baculovirus)
- T1 sequence (P78348 13-464, stated change not applied): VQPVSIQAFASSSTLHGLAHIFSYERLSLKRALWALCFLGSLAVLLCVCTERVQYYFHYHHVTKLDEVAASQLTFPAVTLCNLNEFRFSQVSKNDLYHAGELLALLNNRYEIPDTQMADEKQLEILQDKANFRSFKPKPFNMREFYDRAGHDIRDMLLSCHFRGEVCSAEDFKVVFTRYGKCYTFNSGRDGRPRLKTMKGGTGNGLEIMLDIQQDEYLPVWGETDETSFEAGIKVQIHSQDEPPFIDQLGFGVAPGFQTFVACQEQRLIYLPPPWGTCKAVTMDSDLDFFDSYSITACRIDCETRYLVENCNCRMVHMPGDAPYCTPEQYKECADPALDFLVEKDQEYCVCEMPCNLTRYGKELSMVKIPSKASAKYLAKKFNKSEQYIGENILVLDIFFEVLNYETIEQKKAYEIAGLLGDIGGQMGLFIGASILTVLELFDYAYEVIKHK
- T1 sequence (P02647 68-267 partner limits assumed): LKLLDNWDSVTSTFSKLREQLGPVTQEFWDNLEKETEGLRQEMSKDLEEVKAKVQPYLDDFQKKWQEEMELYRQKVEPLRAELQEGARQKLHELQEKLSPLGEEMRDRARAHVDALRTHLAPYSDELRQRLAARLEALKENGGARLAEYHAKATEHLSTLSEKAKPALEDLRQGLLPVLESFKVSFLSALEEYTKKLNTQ
- Procedure Summary: Binding affinities of scFv antibodies to ΔhASIC1a-nanodiscs, Octet system
- Assay Conditions: scFv format; Octet system
Endpoint Name: pKd
Keep in mind that pKd stands for -log10 of concentration in molar terms.

# input molecule: ASC05: anti-ASIC1a scFv antibody, VH SEQ ID NO: 42 and VL SEQ ID NO: 47 (antibody, V domains shown, scFv linker; Amino acid sequence of ASC05 VH; Amino acid sequence of ASC05 VL) VH: QVQLVESGAEVKKPGASVRVSCKASGYSFTNYYMHWVRQAPGQGLEWMGIISPSGRSTSFAQKFQGRVTMTRDTSTSTVYMHLSSLRSDDTAVYYCARGAWSTDAFDIWGQGTTVTVSS VL: QSALTQPASVSGSPGQSITISCTGTSSDVGSYNLVSWYQQHPGKAPKLMIYEGSKRPSGVSNRFSGSKSGNTASLTISGLQAEDEAEYHCSSFTGKGYVFGTGTKLTVLGGLG ; wanted: its pKd
6.86
